Protein target, amino acids: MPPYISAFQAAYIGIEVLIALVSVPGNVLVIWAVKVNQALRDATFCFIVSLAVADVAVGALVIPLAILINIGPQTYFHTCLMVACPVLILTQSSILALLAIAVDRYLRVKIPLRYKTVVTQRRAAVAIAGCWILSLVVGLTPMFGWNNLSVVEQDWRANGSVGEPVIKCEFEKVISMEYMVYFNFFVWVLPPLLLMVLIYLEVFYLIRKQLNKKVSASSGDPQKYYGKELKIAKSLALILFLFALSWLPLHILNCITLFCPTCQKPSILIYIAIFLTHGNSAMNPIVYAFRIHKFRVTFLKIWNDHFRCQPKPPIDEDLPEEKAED

Structure as smiles | Unit | Ki
OC[C@H]1O[C@@H](n2cnc3c(NC4CCCC4)cc(Cl)nc32)[C@H](O)[C@@H]1O | nM | 1.6
OC[C@H]1O[C@@H](n2cnc3c(NC4CCCCC4)cc(Cl)nc32)[C@H](O)[C@@H]1O | nM | 47
